Experiment: yeast display, Sf9 membrane polyspecificity reagent, FACS + sequencing; frameworks hold sequencing errors
ASSAY_READOUT: polyreactivity (PSR sort gate)

As a guide, the following entries are already answered.
RESIDUE_STRING	polyreactivity (PSR sort gate)
QVQLVESGGCLVQAGGSHRLSCAASGSIFYIYAMGWYRQAPGKERELVASITFSGDITYYAYSVKGRFTISRDNAKNTFYLHMNSLKPEDTAVYYCAADYHEQSYAVTYDYWGQGTQVTVSS	low polyreactivity
QVQLVESGGGLVQAGGSLRLSCAASGIIFYRYTMGWYRQAPGKERELVAAITSGGDTNYADSVKGRFTISRDNAKNTVYLQMNSLKPEDTAVYYCNADWWWYLYLYDYWGQGTQVTVSS	high polyreactivity
QVQLVESGGGLVQAGGSLSLSCAASGSTYARYTMGWYRQAPGKERELVAAISGRGGSTYYADSVKGRFTISRDNAKNTVYLQMNSLKPEDTAVYYCAAHDTYHSYGLYSWGQGTQVTVSS	low polyreactivity
QVQLVESGGGLVQAGGSLRLSCAASGRIFYAYAMGWYRQAPGKERELVATITGIGGSTYADSVKGRFTISRDNAKNTVNLQMNSLKPEDTAVYYCNAERGVYWGRYPYKYDYWGQGTQVTVSS	low polyreactivity

Asked: If you can, please state the reported polyreactivity (PSR sort gate) value of `QVQLVETGGGLVQAGGSLRLSCAASGSIFVYHAMGGYRQAPGKETEFVAVISNSGSRTYYADSVKGRFTISRDNAKNTVYLQMNSLKPEDTAVYYCAARYYYFQRAYDYWGQGTQVTVSS` .
Given back: high polyreactivity
